# Test system: A. baumannii strain 5075 (AB5075)
# ASSAY_PROCEDURE: Clarithromycin potentiation against AB5075 (CLR MIC in presence of adjuvant)
# Type: cell-based, Acinetobacter baumannii
# CONDITION: AB5075, 30 μM
REPORTED_METRIC: CLR potentiation activity (in words)

1) COc1cc(-c2c[nH]c(N)n2)ccc1NC(=O)Nc1ccc(-c2c[nH]c(N)n2)cc1OC: abolished all activity
2) Nc1nc(-c2ccc(NC(=O)Nc3ccc(-c4c[nH]c(N)n4)c(C(F)(F)F)c3)cc2C(F)(F)F)c[nH]1: abolished all activity
3) Nc1nc(-c2ccc(NC(=O)Nc3ccc(-c4c[nH]c(N)n4)c(Cl)c3)cc2Cl)c[nH]1 [Compound 14b]: abolished all activity
4) Cc1cc(-c2c[nH]c(N)n2)ccc1NC(=O)Nc1ccc(-c2c[nH]c(N)n2)cc1C [Compound 14c]: abolished all activity
